Molecular target: MLKL (Homo sapiens)
Sequence (Q8NB16 whole entry): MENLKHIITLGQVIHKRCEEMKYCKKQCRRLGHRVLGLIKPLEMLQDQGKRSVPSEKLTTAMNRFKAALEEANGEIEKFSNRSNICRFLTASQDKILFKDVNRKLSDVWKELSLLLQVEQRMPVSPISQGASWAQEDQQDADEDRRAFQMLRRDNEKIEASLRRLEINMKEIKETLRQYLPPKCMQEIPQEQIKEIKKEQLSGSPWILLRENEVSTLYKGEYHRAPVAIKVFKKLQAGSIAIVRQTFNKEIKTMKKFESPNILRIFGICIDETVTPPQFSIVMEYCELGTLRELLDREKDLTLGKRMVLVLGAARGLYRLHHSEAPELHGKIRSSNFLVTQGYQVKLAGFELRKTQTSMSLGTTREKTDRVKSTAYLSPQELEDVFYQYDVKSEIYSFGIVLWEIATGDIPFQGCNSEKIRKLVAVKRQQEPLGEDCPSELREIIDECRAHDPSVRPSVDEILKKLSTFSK
Kd less than 1 nM is Yes; Kd greater than or equal to 1 nM is No.

Q: Please determine if Nc1ncc(-c2cnn(C3CCN(C(=O)C4CCN(C(=O)COc5cccc6c5C(=O)N(C5CCC(=O)NC5=O)C6=O)CC4)CC3)c2)nc1C(=O)OC(C(=O)Nc1ccc(F)cc1)c1ccccc1 (centres unmarked) is below 1 nM in terms of Kd.
Result: No

Q: What do you get for Nc1ncc(-c2cnn(C3CCN(CC4CCN(CC5CCN(C(=O)C6CN(C7=CC(=O)N(C8CCC(=O)NC8=O)C7=O)C6)CC5)CC4)CC3)c2)nc1C(=O)O[C@@H](C(=O)Nc1ccc(F)cc1)c1ccccc1 (some centres unmarked) ?
Result: Yes

Q: What do you get for Nc1ncc(-c2cnn(C3CCN(CCCCCCNC(=O)COc4cccc5c4C(=O)N(C4CCC(=O)NC4=O)C5=O)CC3)c2)nc1C(=O)O[C@@H](C(=O)Nc1ccc(F)cc1)c1ccccc1 (some centres unmarked) ?
Result: Yes

Q: What do you get for Nc1ncc(-c2cnn(C3CCN(CCCN4CCN(C(=O)C5CCN(C6=CC(=O)N(C7CCC(=O)NC7=O)C6=O)CC5)CC4)CC3)c2)nc1C(=O)O[C@@H](C(=O)Nc1ccc(F)cc1)c1ccccc1 (some centres unmarked) ?
Result: No

Q: What do you get for Nc1ncc(-c2cnn(C3CCN(C(=O)CC4CCN(C(=O)C5CN(c6ccc7c(c6)C(=O)N(C6CCC(=O)NC6=O)C7=O)C5)CC4)CC3)c2)nc1C(=O)O[C@@H](C(=O)Nc1ccc(F)cc1)c1ccccc1 (some centres unmarked) ?
Result: No
